Reported CC50 is given for each of the following compounds.
experiment: NOVARTIS: Cytotoxicity against human hepatocellular carcinoma cell line (Huh7); assay type: toxicity, cell-based, Huh-7; conditions: Huh7 cells (hepatocellular carcinoma cell line)

COC(=O)C1=C(C)N(C)C(C)=C(C(=O)OC)C1c1ccc([N+](=O)[O-])cc1 :: > 100 µM
CCCOC(=O)CSc1nc(N)c(C#N)c(-c2ccco2)c1C#N :: > 100 µM
COc1ccc(C2c3[nH]c4ccccc4c3C[C@@H]3C(=O)N(CCC(C)C)CC(=O)N23)cc1 (stereo not given in full) :: > 10 µM
O=C(Nc1ccccc1)/C(=C\c1ccncc1)NC(=O)c1ccccc1 :: > 10 µM

**Q:** CC50 for c1ccc(CCc2nc3cccnc3n2C2CCN(C3CCN(Cc4ccccc4)CC3)CC2)cc1 ?
**A:** 81.4 µM

**Q:** CC50 for COc1ccc(-c2c[n+](CC(=O)c3ccc(C)cc3)c3n2CCC3)cc1 ?
**A:** > 100 µM

**Q:** CC50 for Cc1ccc2nc(Nc3ncc4c(n3)CC(C)(C)CC4=O)nc(C)c2c1 ?
**A:** > 100 µM

**Q:** CC50 for COc1ccc([N+](=O)[O-])cc1C=NNc1nc(Nc2ccc([N+](=O)[O-])cc2)nc(N2CCN(C)CC2)n1 ?
**A:** 30.7 µM

**Q:** CC50 for Cc1noc(-c2ccc(O)cc2O)c1-c1ccc2c(c1)OCCO2 ?
**A:** 15.2 µM

**Q:** CC50 for Cc1ccc[n+](C(C)C(=O)c2ccc(-c3ccccc3)cc2)c1 (stereo not given) ?
**A:** > 100 µM

###

test system: Plasmodium falciparum; test: NOVARTIS: Inhibition of Plasmodium falciparum W2 (drug-resistant) proliferation in erythrocyte-based infection assay; type: functional, organism-based; conditions: Plasmodium falciparum, W2; read-out: EC50
measured.metric: EC50 (nM)
# value in nM; strip the unit string

CCOC(=O)c1c(NC(=O)C(C)Sc2nnc(CNC(=O)c3ccco3)n2-c2cccc(C(F)(F)F)c2)sc2c1CCC2 (stereo not drawn) :: 649

**Q:** EC50 for CC(C)N(CC(=O)Nc1cc(C(C)(C)C)nn1-c1ccc(Cl)c(Cl)c1)C(=O)c1ccc(C(F)(F)F)cc1 ?
**A:** 1330

**Q:** EC50 for COc1cccc(C(=O)C[n+]2cc(-c3ccc(Cl)cc3)n3c2CCC3)c1 ?
**A:** 975

###

test system: Plasmodium falciparum; assay: NOVARTIS: Inhibition of Plasmodium falciparum 3D7 (drug-susceptible) proliferation in erythrocyte-based infection assay; assay type: functional, organism-based; settings: Plasmodium falciparum, 3D7
Reported EC50 is given for each of the following molecules.
# value in nM; strip the unit string

COc1ccc2nc(C)cc(Nc3cccc(O)c3)c2c1 :: 228
Cc1ccnc(NC(c2ccc(Cl)cc2Cl)c2ccc3cccnc3c2O)c1 (configuration not stated) :: 296

**Q:** EC50 for O=[N+]([O-])c1ccc(-c2ccc(C=NNc3nc(Nc4ccccc4)nc(Nc4ccccc4)n3)o2)cc1 ?
**A:** 875

**Q:** EC50 for Brc1ccc(Nc2nc3ccccc3nc2Nc2ccc(Br)cc2)cc1 ?
**A:** 809

###

assay: NOVARTIS: Cytotoxicity against human hepatocellular carcinoma cell line (Huh7); type: toxicity, cell-based, Huh-7; conditions: Huh7 cells (hepatocellular carcinoma cell line)
measured.metric: CC50

Sample answers from the record:
Cc1cccc(-n2ccnc2SCC(=O)Nc2cc(C(F)(F)F)ccc2Cl)c1 :: > 100 µM
COc1ccc(CNC2CCN(Cc3ccccc3)CC2)cc1OCc1ccccc1 :: > 10 µM
CC(C)(C)NC(=O)C(C1CC1)N1C(=O)c2cc(O)ccc2NC(=O)[C@@H]1CCCCN (stereo not given in full) :: > 10 µM
O=C(Nc1ccc(-c2nc3ccccc3[nH]2)cc1)c1ccc(-c2cccc([N+](=O)[O-])c2)o1 :: > 100 µM
CCOC(=O)C1=C(C)NC2=C(C(=O)CC(c3ccc(OC)c(OC)c3)C2)C1c1ccc([N+](=O)[O-])cc1 (stereo not given) :: > 100 µM
COc1ccc(C2SCCN2S(=O)(=O)c2cccc([N+](=O)[O-])c2)cc1OC (stereo not given) :: > 10 µM
CCOC(=O)C1=C(C)NC2=C(C(=O)CC(c3ccc(OC)c(OC)c3)C2)C1c1ccc(SC)cc1 (stereo not given) :: > 100 µM
COc1ccc(CNC(=O)CCc2cn(Cc3cc(C)ccc3C)c3ccccc23)cc1OC :: > 10 µM
Cc1nc(N2CCC(C)CC2)c2c(C)c(C(=O)Nc3ccc(F)cc3)sc2n1 :: > 10 µM

**Q:** CC50 for C=CCNC(=O)CSc1ccc(C(=O)Nc2ccc(Cl)cc2F)cc1[N+](=O)[O-] ?
**A:** > 10 µM

###

test system: Plasmodium falciparum; assay: NOVARTIS: Inhibition of Plasmodium falciparum W2 (drug-resistant) proliferation in erythrocyte-based infection assay; type: functional, organism-based; details: Plasmodium falciparum, W2; read-out: EC50
measured.metric: EC50 (nM)
# value in nM; strip the unit string

C=C(C)C(=O)OCCc1ccc(O)c(-n2nc3ccccc3n2)c1 :: 1010
CCOC(=O)c1cc(-c2ccc(OC)cc2)n(CCC(=O)Nc2cccc(C(C)=O)c2)c1C :: 8.49
CC(Oc1ccc(Cl)cc1Cl)c1nc(-c2ccc(NC(=O)c3ccco3)cc2)no1 (stereo not drawn) :: 551
O=C(Nc1ccc(C2=NCCN2)c(Cl)c1)c1ccc(C(=O)Nc2ccc(C3=NCCN3)c(Cl)c2)cc1 :: 234
C[N+](C)(C)c1ccc2cc(Br)c3ccccc3c2c1 :: 1370

**Q:** EC50 for O=C(NCCc1nc(-c2ccncc2)n[nH]1)C12CC3CC(CC(C3)C1)C2 ?
**A:** 44.9

**Q:** EC50 for Cc1ccc(NC(=O)c2ccc(NCCCN3CCC(C)CC3)c([N+](=O)[O-])c2)cc1F ?
**A:** 330

**Q:** EC50 for COc1ccc(NC(=O)C2c3ccccc3C(=O)N(C3CCCC3)C2c2cccs2)cc1Cl (stereo not drawn) ?
**A:** 107

###

test: NOVARTIS: Cytotoxicity against human hepatocellular carcinoma cell line (Huh7); type: toxicity, cell-based, Huh-7; settings: Huh7 cells (hepatocellular carcinoma cell line)
measured.metric: CC50

Sample answers from the record:
CCOc1cc(Br)cc(C=NNC(=O)COc2cccc(C)c2)c1O :: > 46.2 µM
COc1cc(CNc2ccc3nc(N)nc(N)c3c2)cc(OC)c1OC :: > 10 µM
Cc1noc(-c2ccc(O)cc2O)c1-c1ccc2c(c1)OCCCO2 :: > 10 µM
O=C(/C=C/c1ccc(Br)cc1)NC(=O)c1ccccc1O :: > 10 µM
Cc1ccccc1-c1cnnc(NCC2CCCCO2)n1 (stereo unspecified) :: > 100 µM

Could you now consider this next compound?
**Q:** CC50 for CCOC(=O)C1=C(C)NC(=Cc2cc(C)n(-c3ccc(C)cc3C)c2C)C1=O ?
**A:** > 100 µM

###

Reported CC50 is given for each of the following compounds.
test: NOVARTIS: Cytotoxicity against human hepatocellular carcinoma cell line (Huh7); format: toxicity, cell-based, Huh-7; settings: Huh7 cells (hepatocellular carcinoma cell line)

Sample answers from the record:
O=C(NN=CC1CC=CCC1)c1ccc([N+](=O)[O-])cc1Cl (stereo unspecified) :: > 10 µM
C=C[C@H]1CN2CC[C@H]1C[C@H]2[C@H](OC(=O)CCCC)c1ccnc2ccccc12 :: > 10 µM
COc1cc(NC(C)CCCN(Cc2ccc(N(C)C)cc2)C(=O)C(Cl)Cl)c2ncccc2c1 (stereo unspecified) :: > 6.79 µM
COC(=O)c1c(NC(=O)c2cc3ccccc3oc2=O)sc2c1CCC(C)C2 (stereo unspecified) :: > 100 µM
CN(CCCNc1ccnc2cc(Cl)ccc12)C(=O)c1ccc(C(F)(F)F)cc1 :: 64.6 µM

**Q:** CC50 for COc1ccc(-c2cn(-c3ccc(OC)cc3)c(SCC(=O)Nc3ccccc3)n2)cc1 ?
**A:** > 100 µM

**Q:** CC50 for CCN(CC)CCCC(C)N=c1cc(C=Cc2ccccc2Cl)[nH]c2cc(Cl)ccc12 (stereo unspecified) ?
**A:** 18.8 µM

**Q:** CC50 for Cn1nc(C(=O)N2CCc3ccccc3C2)c2c1CCC(N1CCN(Cc3cccc(F)c3)CC1)C2 (stereo unspecified) ?
**A:** 8.02 µM

###

Reported pEC50 is given for each of the following compounds.
system: Plasmodium falciparum; experiment: NOVARTIS: Inhibition of Plasmodium falciparum 3D7 (drug-susceptible) proliferation in erythrocyte-based infection assay; assay type: functional, organism-based; conditions: Plasmodium falciparum, 3D7
The meaning of pEC50 here: minus log10 of the concentration in molar units.

Sample answers from the record:
N#Cc1c(N)nc2sc(C(=O)Nc3ccc(Br)cc3)c(N)c2c1-c1ccccc1 :: 5.09
Cn1cc(S(=O)(=O)c2cccc(Cl)c2)c(=O)c2cc(F)c(N3CCCCC3)cc21 :: 5.99
O=C(NC1CC1)C1CCN(c2cccc3c2C(=O)N(Cc2cccc(C(F)(F)F)c2)C3=O)CC1 :: 5.66
CCN1/C(=C/c2sc3ccc(Br)cc3[n+]2CC)C=Cc2ccccc21 :: 6.19
CC1(C)Cc2c(sc(NC(=O)CCl)c2C#N)CO1 :: 5.69

**Q:** pEC50 for c1ccc(-c2csc(Nc3nc4cc5c(cc4s3)OCO5)n2)nc1 ?
**A:** 6.19

**Q:** pEC50 for Cc1cc(NC(c2cccc(Br)c2)c2ccc3cccnc3c2O)no1 (centres undefined) ?
**A:** 6.57

**Q:** pEC50 for COc1ccc2c(c1)C(C)(CC#N)C(=O)N2C (centres undefined) ?
**A:** 5.25

**Q:** pEC50 for COc1cc(NC(C)CCCN(Cc2ccccc2OC)S(=O)(=O)c2ccc(Br)cc2)c2ncccc2c1 (centres undefined) ?
**A:** 6.02

**Q:** pEC50 for CCOC(=O)C1=C(C)NC2=C(C(=O)C(C(=O)OCC)C(c3cccc(OC)c3)C2)C1c1ccc(Br)cc1 (centres undefined) ?
**A:** 5.66

**Q:** pEC50 for CCOC(=O)c1ccc(N(C(=O)Cc2c[nH]c3ccccc23)C(C(=O)NC2CCCCC2)c2cccc(OC)c2OC)cc1 (centres undefined) ?
**A:** 7.27

**Q:** pEC50 for C=CCNC(=S)N1CCN(c2ccc([N+](=O)[O-])cc2)CC1 ?
**A:** 5.63

**Q:** pEC50 for CCCCCCCCCC(=O)N1CCN(C(CC)c2nc3ccccc3c(=O)n2C)CC1 (centres undefined) ?
**A:** 6.55

**Q:** pEC50 for Cc1cc(Nc2ccc(C)c(F)c2)n2nc(C)nc2n1 ?
**A:** 5.98

**Q:** pEC50 for COc1cc(-c2nc3ccc(N4CCN(C)CC4)cc3[nH]2)cc(OC)c1OC ?
**A:** 6.13

**Q:** pEC50 for CN(Cc1cc(-c2ccc(F)cc2)ccc1O)CC(O)c1ccccc1 (centres undefined) ?
**A:** 6.65

**Q:** pEC50 for CCCCN(CCCC)S(=O)(=O)c1nc(C)c(Cl)c(C)c1C#N ?
**A:** 5.51

**Q:** pEC50 for COc1cc2c(cc1OC)-c1cc3ccc4c(c3c[n+]1CC2)OCO4 ?
**A:** 6.99

**Q:** pEC50 for CN(C)CCN1CCN(c2cccc(-c3cccc4cccnc34)n2)CC1 ?
**A:** 7.74
